- System: MDA-N
- assay.procedure: NCI tumour cell line growth inhibition, 48 h
Active and inactive are the calls of the source. No stated cut-off is given here; in the data, active = GI50 up to about 1.1 µM and inactive = higher.

[
  {
    "compound": "O=P1(N(CCCl)CCCl)Oc2ccc(Cl)cc2Sc2c(ccc(Cl)c2Cl)O1 (centres undefined)",
    "GI50": "7.91 µM (inactive)"
  },
  {
    "compound": "NC(=S)N/N=C(/C(=O)Nc1nc2ccc([N+](=O)[O-])cc2s1)C1C(=O)NC(=S)NC1=O",
    "GI50": "> 100 µM (inactive)"
  },
  {
    "compound": "CC1=C(C)C(=O)C(C2=CC(=O)C=CC2=O)=C(C2=CC(=O)C=CC2=O)C1=O",
    "GI50": "26.9 µM (inactive)"
  },
  {
    "compound": "O=C(c1ccccc1)c1ccc(N2C(=O)/C(=C/c3cccc([N+](=O)[O-])c3)N=C2c2ccccc2)c(N2C(=O)/C(=C/c3cccc([N+](=O)[O-])c3)N=C2c2ccccc2)c1",
    "GI50": "21.7 µM (inactive)"
  },
  {
    "compound": "CCOC(=O)CCC(NC(=O)c1ccc(Nc2cnc3ccc(C(F)(F)F)cc3n2)cc1)C(=O)OCC (centres undefined)",
    "GI50": "> 100 µM (inactive)"
  },
  {
    "compound": "Cc1ccc(NC(=O)c2cc(S(=O)(=O)Nc3nc4cccnc4[nH]3)c(SSc3cc(Cl)c(C(=O)Nc4ccc(C)cc4)cc3S(=O)(=O)Nc3nc4cccnc4[nH]3)cc2Cl)cc1",
    "GI50": "> 100 µM (inactive)"
  },
  {
    "compound": "c1ccc2c(c1)nc1n2CNC1",
    "GI50": "> 100 µM (inactive)"
  },
  {
    "compound": "O=C/C(=C(/Br)I)c1ccccc1",
    "GI50": "2.54 µM (inactive)"
  },
  {
    "compound": "COC1C(OC(N)=O)C(O)C(Oc2ccc3c(O)c(NC(=O)c4ccc(O)c(CC=C(C)C)c4)c(=O)oc3c2C)OC1(C)C (centres undefined)",
    "GI50": "> 100 µM (inactive)"
  },
  {
    "compound": "Nc1ncnc2c1cnn2COCC(O)CO (centres undefined)",
    "GI50": "> 100 µM (inactive)"
  },
  {
    "compound": "CC(C)C1CC=NN1C(=O)OC(C)(C)C (centres undefined)",
    "GI50": "> 100 µM (inactive)"
  },
  {
    "compound": "Cc1nn(-c2ccccc2)c(C)c1/C=N/NC(=O)c1sc(=S)n(-c2ccc(Cl)cc2)c1N",
    "GI50": "11.5 µM (inactive)"
  },
  {
    "compound": "CC(C)(C)OC(=O)NCCCCC(N)NC(=O)c1ccccc1 (centres undefined)",
    "GI50": "> 100 µM (inactive)"
  },
  {
    "compound": "Cc1ccc(C(=O)N/N=C(\\N=N\\c2ccccc2[N+](=O)[O-])c2ccc(N(C)C)cc2)cc1",
    "GI50": "> 100 µM (inactive)"
  },
  {
    "compound": "COc1cc(OC)c(C2(c3c(OC(C)C)c(=O)c3=O)SCCCS2)cc1OC",
    "GI50": "> 100 µM (inactive)"
  },
  {
    "compound": "C=C(Br)CNC(=O)CCC(=O)NCC(=C)Br",
    "GI50": "> 100 µM (inactive)"
  },
  {
    "compound": "CC(C)NC(=O)OCCN=C1c2ccccc2CCc2ccccc21",
    "GI50": "18.7 µM (inactive)"
  },
  {
    "compound": "CC(=O)N(CC(=O)C(=O)NNc1ccoc1)c1ccc(Cl)cc1",
    "GI50": "> 100 µM (inactive)"
  },
  {
    "compound": "O=[N+]([O-])c1cccc2nnccc12",
    "GI50": "17.6 µM (inactive)"
  },
  {
    "compound": "CSc1ncnc2c1ncn2C1CC(Oc2ccc(C)cc2)C(COc2ccc(C)cc2)O1 (centres undefined)",
    "GI50": "> 100 µM (inactive)"
  },
  {
    "compound": "C=CC1(C)CCC2C(=CCC3C2(C)CC(O)C(O)C3(C)COC2OC(CO)C(O)C(O)C2O)C1 (centres undefined)",
    "GI50": "> 100 µM (inactive)"
  },
  {
    "compound": "NS(=O)(=O)c1ccc(C(=O)O)cc1 [CARZENIDE]",
    "GI50": "> 100 µM (inactive)"
  },
  {
    "compound": "C[C@H]1CC(=O)[C@@]2(O)C#C/C=C\\C#C[C@@H]3Nc4c(cc(O)c5c4C(=O)c4ccccc4C5=O)[C@]24O[C@]314",
    "GI50": "0.0309 µM (active)"
  },
  {
    "compound": "COC(=O)C1=C2Nc3ccccc3C23CCN2C(O)C4(CC5CC67CCOC6CCN6CCC8(c9cccc(OC)c9N(C4)C58O)C67)C4OCCC4(C1)C23 (centres undefined)",
    "GI50": "98.2 µM (inactive)"
  },
  {
    "compound": "NC(=O)SCCC(N)C(=O)O (centres undefined)",
    "GI50": "> 100 µM (inactive)"
  },
  {
    "compound": "C=C1C(O)C2(O)OCC34C(CC5C(C)=CC(=O)C(O)C5(C)C23)OC(=O)C(OC(=O)C/C=C(\\C)CCCCC)C14 (centres undefined)",
    "GI50": "< 0.001 µM (active)"
  },
  {
    "compound": "O=C1Nc2ccccc2/C1=N/N=C1NCCCCN1",
    "GI50": "> 100 µM (inactive)"
  },
  {
    "compound": "COc1cc(OC)cc(-n2c(N)c(C#N)c3ccc([N+](=O)[O-])cc3c2=O)c1",
    "GI50": "80 µM (inactive)"
  },
  {
    "compound": "Cn1c(=O)c2nc(CCCc3ccc([N+](=O)[O-])cc3)[nH]c2n(C)c1=O",
    "GI50": "> 100 µM (inactive)"
  },
  {
    "compound": "CC(C)(C)[Si](C)(C)OCC1OC(n2cc(I)c(N)nc2=O)C(O[Si](C)(C)C(C)(C)C)C1O[Si](C)(C)C(C)(C)C (centres undefined)",
    "GI50": "12.2 µM (inactive)"
  },
  {
    "compound": "C/C(=N\\N)C(CN1CCOCC1)C(c1ccccc1)c1c(O)c2ccccc2oc1=O (centres undefined)",
    "GI50": "> 100 µM (inactive)"
  },
  {
    "compound": "C[N+](C)(C)/N=C\\c1ccc(O)c(O)c1",
    "GI50": "> 100 µM (inactive)"
  },
  {
    "compound": "CCN(CCCl)c1cc(CN(C)C)cc(NC(=O)c2ccc(C(=O)Nc3cc(CN(C)C)cc(N(CC)CCCl)c3)cc2)c1",
    "GI50": "0.154 µM (active)"
  },
  {
    "compound": "COc1cc(CNc2nc3ccccc3nc2-c2cccs2)cc(OC)c1OC",
    "GI50": "16.3 µM (inactive)"
  },
  {
    "compound": "Cc1nc(-n2nc(-c3ccccc3)cc2-c2ccccc2)sc1C(=O)/C=C/c1ccc([N+](=O)[O-])cc1",
    "GI50": "19.2 µM (inactive)"
  },
  {
    "compound": "O=C(c1ccc(Cl)c(Cl)c1)N(C(=S)OC12CC3CC(CC(C3)C1)C2)c1ccccc1",
    "GI50": "32.7 µM (inactive)"
  },
  {
    "compound": "Cc1ccc2c(n1)C(=O)c1cc(C)c(C)cc1C2=O",
    "GI50": "> 100 µM (inactive)"
  },
  {
    "compound": "NC(=O)c1cc2ccc(O)cc2o/c1=N/c1ccccc1",
    "GI50": "22.5 µM (inactive)"
  },
  {
    "compound": "CC12CC3CC/C(=N\\O)C(C1)C3(N1CCOCC1)C/C2=N/O (centres undefined)",
    "GI50": "> 100 µM (inactive)"
  }
]
